Here's a roundup of IC50 values tested on UniProtKB O00329, taken from various published works.

Query: # get_value(readout='IC50', item= C=CC(=O)N1CC[C@@H](C(=O)NCC(=O)N2CCN(c3ccc4c(c3)-c3nc(N5C(=O)OC[C@H]5C(F)F)cn3CCO4)CC2)C1 )
Response: 20 nM

Query: Can you handle CO[C@@H]1C[C@@H](C(N)=S)N(C(=O)Nc2nc(C)c(-c3ccnc(C(C)(C)C(F)(F)F)c3)s2)C1 next?
Response: 500 to 1000 nM

Query: Can you handle COc1ncc(-c2nc(N3CCOCC3)nc3c(CN4CCC(c5ccc(C(=O)NO)cc5F)CC4)cc(F)cc23)cc1NS(=O)(=O)C(F)(F)F next?
Response: ≤ 10 nM

Query: Can you handle C=CC(=O)Nc1ccc(CC(=O)N2CCN(c3ccc4c(c3)-c3nc(N5C(=O)OC[C@H]5C(F)F)cn3CCO4)CC2)cc1 next?
Response: < 8 nM

Query: Can you handle COc1ncc(-c2nc(N3CCOCC3)nc3c(CN4CCC(OCCC(=O)NO)CC4)cc(F)cc23)cc1NS(C)(=O)=O next?
Response: ≤ 10 nM

Query: Can you handle Cc1nc(NC(=O)N2CC3(C[C@H]2C(N)=S)CC3(F)F)sc1-c1ccnc(C(C)(C)C(F)(F)F)c1 (stereo partly drawn) next?
Response: > 1000 nM

Query: Can you handle Cc1nc(NC(=O)N2C[C@H](O)C[C@H]2C(N)=S)sc1-c1ccnc(C(C)(C)C(F)(F)F)c1 next?
Response: 200 to 500 nM

Query: Can you handle Cc1nc(NC(=O)N2[C@H](C)CC[C@H]2C(N)=S)sc1-c1ccnc(C(C)(C)C(F)(F)F)c1 next?
Response: > 1000 nM

Query: Can you handle COc1ncc(-c2nc(N3CCOCC3)nc3c(CN4CCC(N5CCC(C(=O)NO)CC5)CC4)cc(F)cc23)cc1NS(C)(=O)=O next?
Response: 10 to 100 nM

Query: Can you handle COc1ncc(-c2nc(N3CCOCC3)nc3c(CN4CC(OCCOCC(=O)NO)C4)cc(F)cc23)cc1NS(C)(=O)=O next?
Response: 10 to 100 nM

Query: Can you handle Cc1nc(NC(=O)N2C[C@@H](C(F)(F)F)C[C@H]2C(N)=S)sc1-c1ccnc(C(C)(C)C(F)(F)F)c1 next?
Response: > 1000 nM

Query: Can you handle C=CC(=O)N1CC(N2CCC(CN3CCN(c4ccc5c(c4)-c4nc(N6C(=O)OC[C@H]6C(F)F)cn4CCO5)CC3)CC2)C1 next?
Response: 92 nM

Query: Can you handle COc1ncc(-c2nc(N3CCOCC3)nc3c(CN4CCN(c5ccc(C(=O)NO)cc5F)CC4)cc(F)cc23)cc1NS(C)(=O)=O next?
Response: 10 to 100 nM

Query: Can you handle COc1ncc(-c2nc(N3CCOCC3)nc3c(CN4CCN(CCCCC(=O)NO)CC4)cc(F)cc23)cc1NS(C)(=O)=O next?
Response: ≤ 10 nM

Query: Can you handle COc1ncc(-c2nc(N3CCOCC3)nc3c(OC4CCC(c5ccc(C(=O)NO)cc5F)CC4)cc(F)cc23)cc1NS(C)(=O)=O (stereo not drawn) next?
Response: 100 to 1000 nM

Query: Can you handle COc1ncc(-c2nc(N3CCOCC3)nc3c(OC4CCN(c5ccc(C(=O)NO)cn5)CC4)cc(F)cc23)cc1NS(C)(=O)=O next?
Response: ≤ 10 nM

Query: Can you handle COc1ncc(-c2nc(N3CCOCC3)nc3c(CN4CCC(c5ccc(C(=O)NO)c(F)c5)CC4)cc(F)cc23)cc1NS(C)(=O)=O next?
Response: ≤ 10 nM

Query: Can you handle COc1ncc(-c2nc(N3CCOCC3)nc3c(OC4CCN(c5cc(C(=O)NO)no5)CC4)cc(F)cc23)cc1NS(C)(=O)=O next?
Response: 10 to 100 nM
